measured-target: Muscarinic acetylcholine receptor (Rattus norvegicus) (UniProt P08482+P08483+P08485+P08911+P10980)
Consider the following molecules and their measured K app readings.
The reply should be a number in µM, with the unit left off.

Examples with answers:
[
  {
    "molecule": "Cc1cnc(C)c([C@@H]2CN3CCC2C3)n1 (stereo partly drawn)",
    "units": "µM",
    "K app": 3
  },
  {
    "molecule": "Cc1cnc(C)c(C2CN3CCC2CC3)n1 (stereo not drawn)",
    "units": "µM",
    "K app": 0.26
  },
  {
    "molecule": "Cc1nc(C)c([C@@H]2CN3CCC2C3)nc1C (stereo partly drawn)",
    "units": "µM",
    "K app": 1.6
  },
  {
    "molecule": "COc1cncc([C@@H]2CN3CCCC2C3)n1 (stereo partly drawn)",
    "units": "µM",
    "K app": 0.19
  },
  {
    "molecule": "CCc1cncc(C2CN3CCC2CC3)n1 (stereo not drawn)",
    "units": "µM",
    "K app": 0.02
  },
  {
    "molecule": "Cc1cnc([C@@H]2CN3CCC2C3)c(C)n1 (stereo partly drawn)",
    "units": "µM",
    "K app": 6.2
  },
  {
    "molecule": "CN(C)c1cncc([C@H]2CN3CCC2C3)n1 (stereo partly drawn)",
    "units": "µM",
    "K app": 0.86
  },
  {
    "molecule": "CCc1nccnc1[C@H]1CN2CCC1C2 (stereo partly drawn)",
    "units": "µM",
    "K app": 0.69
  }
]

query: For CN(C)c1cncc([C@@H]2CN3CCC2C3)n1 (stereo partly drawn) , write its K app.
result: 0.03

query: Give the reported value of K app for this record: Cc1ncc(C2CN3CCC2CC3)nc1C (stereo not drawn)
result: 0.078

----------
measured-target: Muscarinic acetylcholine receptor (Rattus norvegicus) (UniProt P08482+P08483+P08485+P08911+P10980)
Recorded measurements of K app, one per entry
Give the value in µM but do not write µM after it.

Consider the worked cases shown below.
[
  {
    "molecule": "Cc1nc(C)c([C@@H]2CN3CCC2C3)nc1C (stereo not given in full)",
    "K app (µM)": 0.25
  },
  {
    "molecule": "Cc1cnc(C)c(C2CN3CCC2CC3)n1 (stereo not given)",
    "K app (µM)": 0.026
  },
  {
    "molecule": "c1cnc(C2CN3CCC2CC3)cn1 (stereo not given)",
    "K app (µM)": 0.00068
  },
  {
    "molecule": "Clc1cncc(C2CN3CCC2CC3)n1 (stereo not given)",
    "K app (µM)": 0.00087
  },
  {
    "molecule": "CCOc1cncc(C2CN3CCC2CC3)n1 (stereo not given)",
    "K app (µM)": 0.0021
  }
]

query: Write down K app measured for item CCc1cncc(C2CN3CCC2CC3)n1 (stereo not given)
result: 0.0017

query: Dear colleague, please send me the reported K app for Nc1noc(C2CN3CCC2C3)n1 (stereo in doubt; 3b) when you can.
result: 0.0051

----------
measured-target: Muscarinic acetylcholine receptor (Rattus norvegicus) (UniProt P08482+P08483+P08485+P08911+P10980)
measure-name: K app

[
  {
    "compound": "c1cnc([C@@H]2CN3CCC2C3)cn1 (some centres undefined)",
    "K app": "0.0007 µM"
  },
  {
    "compound": "Oc1cncc(C2CN3CCC2CC3)n1 (centres undefined)",
    "K app": "0.28 µM"
  },
  {
    "compound": "CC(C)c1nccnc1C1CN2CCC1C2 (centres undefined)",
    "K app": "0.022 µM"
  },
  {
    "compound": "CN(C)c1cncc([C@H]2CN3CCC2C3)n1 (some centres undefined)",
    "K app": "0.057 µM"
  }
]

query: Output K app of Cc1nc(C)c([C@H]2CN3CCC2C3)nc1C (some centres undefined)
result: 0.053 µM

query: Recall and state the measured K app for Cc1ncc(C2CN3CCC2CC3)cn1 (centres undefined) .
result: 0.091 µM

The measured values listed here are drawn from ChEMBL document CHEMBL1126146.
